# Test system: 282377-053-R-J1-PDC tumor spheroids, viability
# test: Anticancer human tumor 282377-053-R-J1-PDC patient-derived colon adenocarcinoma cell line growth inhibition [TAK]; active means viability on the fitted dose curve at most 10% of control; inactive means the rest
# test_conditions: second compound 9.49 µM; first compound 0.1 µM; spheroids with HUVEC and MSC
Return exactly one item of active, inactive

Would you please look over these solved cases?
>  <compound>
CC(C)CC(NC(=O)CNC(=O)c1cc(Cl)ccc1Cl)B1OC(=O)CC(CC(=O)O)(C(=O)O)O1 (stereo unspecified) + CC(C)NCC(C(=O)N1CCN(c2ncnc3c2C(C)CC3O)CC1)c1ccc(Cl)cc1

>  <study_system>
282377-053-R-J1-PDC tumor spheroids, viability

>  <category>
active

$$$$
>  <compound>
CC(C)(C)c1nc(-c2cccc(NS(=O)(=O)c3c(F)cccc3F)c2F)c(-c2ccnc(N)n2)s1 + CC(C)NCC(C(=O)N1CCN(c2ncnc3c2C(C)CC3O)CC1)c1ccc(Cl)cc1

>  <study_system>
282377-053-R-J1-PDC tumor spheroids, viability

>  <category>
inactive

$$$$
>  <compound>
Cc1nc(NC(=O)N2CCCC2C(N)=O)sc1-c1ccnc(C(C)(C)C(F)(F)F)c1 (stereo unspecified) + CC(C)NCC(C(=O)N1CCN(c2ncnc3c2C(C)CC3O)CC1)c1ccc(Cl)cc1

>  <study_system>
282377-053-R-J1-PDC tumor spheroids, viability

>  <category>
inactive

$$$$

Tell me the recorded outcome of this test for CC(C)n1nc(-c2ccc3oc(N)nc3c2)c2c(N)ncnc21 + CC(C)NCC(C(=O)N1CCN(c2ncnc3c2C(C)CC3O)CC1)c1ccc(Cl)cc1 .
inactive

Then what about the compound COc1c(OCCCN2CCOCC2)ccc2c3n(c(=NC(=O)c4cnc(N)nc4)nc12)CCN3 + CC(C)NCC(C(=O)N1CCN(c2ncnc3c2C(C)CC3O)CC1)c1ccc(Cl)cc1 ?
inactive

Then what about the compound COC1CC2CCC(C)C(O)(O2)C(=O)C(=O)N2CCCCC2C(=O)OC(C(C)CC2CCC(OCCO)C(OC)C2)CC(=O)C(C)C=C(C)C(O)C(OC)C(=O)C(C)CC(C)C=CC=CC=C1C (stereo unspecified) + CC(C)NCC(C(=O)N1CCN(c2ncnc3c2C(C)CC3O)CC1)c1ccc(Cl)cc1 ?
inactive

====

# Test system: 282377-053-R-J1-PDC tumor spheroids, viability
# test: Anticancer human tumor 282377-053-R-J1-PDC cell line growth inhibition [TAK];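 further: spheroids exposed to drugs for seven days before readout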
# test_conditions: second compound 0.3 µM; first compound 0.000316 µM; stronger effect = lower value; spheroids with HUVEC and MSC
In this section, each of the molecules is paired with its reported viability, T/C.
Give just the numeric value; % need not be written.

>  <molecule>
COC1CC2CCC(C)C(O)(O2)C(=O)C(=O)N2CCCCC2C(=O)OC(C(C)CC2CCC(OCCO)C(OC)C2)CC(=O)C(C)C=C(C)C(O)C(OC)C(=O)C(C)CC(C)C=CC=CC=C1C (centres undefined) + CC(C)NCC(C(=O)N1CCN(c2ncnc3c2C(C)CC3O)CC1)c1ccc(Cl)cc1

>  <study_system>
282377-053-R-J1-PDC tumor spheroids, viability

>  <viability, T/C (%)>
93.1

$$$$
>  <molecule>
CC(C)n1nc(-c2ccc3oc(N)nc3c2)c2c(N)ncnc21 + CC(C)NCC(C(=O)N1CCN(c2ncnc3c2C(C)CC3O)CC1)c1ccc(Cl)cc1

>  <study_system>
282377-053-R-J1-PDC tumor spheroids, viability

>  <viability, T/C (%)>
106

$$$$
>  <molecule>
CC(C)CC(NC(=O)C(Cc1ccccc1)NC(=O)c1cnccn1)B(O)O (centres undefined) + CC(C)NCC(C(=O)N1CCN(c2ncnc3c2C(C)CC3O)CC1)c1ccc(Cl)cc1

>  <study_system>
282377-053-R-J1-PDC tumor spheroids, viability

>  <viability, T/C (%)>
97.5

$$$$

Using the record for CC(C)CC(NC(=O)CNC(=O)c1cc(Cl)ccc1Cl)B1OC(=O)CC(CC(=O)O)(C(=O)O)O1 (centres undefined) + CC(C)NCC(C(=O)N1CCN(c2ncnc3c2C(C)CC3O)CC1)c1ccc(Cl)cc1 , report its viability, T/C.
99.5

====

# System: 282377-053-R-J1-PDC tumor spheroids, viability
# test: Anticancer human tumor 282377-053-R-J1-PDC cell line growth inhibition [TAK];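 further: spheroids exposed to drugs for seven days before readout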
# test_conditions: curve of first compound; second compound 9.49 µM; spheroids with HUVEC and MSC
In this section, each of the compounds is paired with its reported IC50.
Your reply should be a number followed by the unit it is expressed in.

Answered examples (2):
>  <compound>
CC(C)n1nc(-c2ccc3oc(N)nc3c2)c2c(N)ncnc21 + CC(C)NCC(C(=O)N1CCN(c2ncnc3c2C(C)CC3O)CC1)c1ccc(Cl)cc1

>  <reported_measurement>
14.7 nM

$$$$
>  <compound>
CC(=O)Nc1cccc(-n2c(=O)n(C3CC3)c(=O)c3c(Nc4ccc(I)cc4F)n(C)c(=O)c(C)c32)c1 + CC(C)NCC(C(=O)N1CCN(c2ncnc3c2C(C)CC3O)CC1)c1ccc(Cl)cc1

>  <reported_measurement>
1.54 nM

$$$$

Using the record for Cn1cnc2c(F)c(Nc3ccc(Br)cc3Cl)c(C(=O)NOCCO)cc21 + CC(C)NCC(C(=O)N1CCN(c2ncnc3c2C(C)CC3O)CC1)c1ccc(Cl)cc1 , report its IC50.
191 nM
